assay: physchem; format: physicochemical; conditions: 25 °C, pH 8, aqueous buffer, thermodynamic from solid
measuredParameter: solubility thermodynamic (µg/mL)
The response must be a number in µg/mL with no trailing unit.

The compound listed as CC1=CC(=O)c2c(O)cccc2C1=O [Compound I, 5-hydroxy-2-methylnaphthalene-1,4-dione] has a reported solubility thermodynamic of 43

* * *

experiment: physchem; assay type: physicochemical; conditions: 25 °C, water, thermodynamic from solid
measuredParameter: solubility thermodynamic (µg/mL)
Write the answer as a number in µg/mL, unit excluded.

The reported solubility thermodynamic of the molecule CC1=CC(=O)c2c(O)cccc2C1=O [Compound I, 5-hydroxy-2-methylnaphthalene-1,4-dione] was 72

* * *

assay: physchem; format: physicochemical; conditions: 25 °C, pH 9, aqueous buffer, thermodynamic from solid
measuredParameter: solubility thermodynamic (µg/mL)
Give the number; µg/mL is assumed, so skip it.

Just so you know, measured solubility thermodynamic for CC1=CC(=O)c2c(O)cccc2C1=O [Compound I, 5-hydroxy-2-methylnaphthalene-1,4-dione] came out at 75

* * *

assay: physchem; format: physicochemical; settings: 25 °C, pH 2, aqueous buffer, thermodynamic from solid
measuredParameter: solubility thermodynamic (µg/mL)
Number in µg/mL, nothing else.

The value of solubility thermodynamic measured for the molecule CC1=CC(=O)c2c(O)cccc2C1=O [Compound I, 5-hydroxy-2-methylnaphthalene-1,4-dione] turned out to be 45

* * *

assay: physchem; type: physicochemical; settings: 25 °C, pH 4, aqueous buffer, thermodynamic from solid
measuredParameter: solubility thermodynamic (µg/mL)
# number only, unit µg/mL dropped from output

Briefly, solubility thermodynamic measured for CC1=CC(=O)c2c(O)cccc2C1=O [Compound I, 5-hydroxy-2-methylnaphthalene-1,4-dione] : 16

* * *

assay: physchem; format: physicochemical; conditions: 25 °C, pH 3, aqueous buffer, thermodynamic from solid
measuredParameter: solubility thermodynamic (µg/mL)
The response must be a number in µg/mL with no trailing unit.

Please fill in: solubility thermodynamic reported for CC1=CC(=O)c2c(O)cccc2C1=O [Compound I, 5-hydroxy-2-methylnaphthalene-1,4-dione] = 49

* * *

assay: physchem; type: physicochemical; settings: 25 °C, pH 5, aqueous buffer, thermodynamic from solid
measuredParameter: solubility thermodynamic (µg/mL)
Use µg/mL as the unit, but write only the number.

solubility thermodynamic in this record for CC1=CC(=O)c2c(O)cccc2C1=O [Compound I, 5-hydroxy-2-methylnaphthalene-1,4-dione] : 46
